Test system: Zymoseptoria tritici (SEPTTR-184)
experimental protocol: Efficacy of target gene fragments (MgCytB dsRNA tiles) on wheat plants, SEPTTR-184
Type: in vivo
condition notes: 1DP (preventative); average of 200, 50, 12.5, 3.125 ppm
measure: Disease Control All Rates Average SEPTTR-184 1DP (%)
Give bare numbers, in %.

Consider MgCytB-T5: 172 bp dsRNA of Zymoseptoria CytB region T5, location 173-344 (SEQ ID NO:8) (nucleic acid, listed as Zymoseptoria tritici, complementary strand of dsRNA) TATCTGAAGCATTTAACTCAGTTGAACACATAATGAGAGATGTAAACAATGGATGACTTATACGTTATCTTCACTCTAATACTGCTTCAGCTTTCTTCTTTTTAGTTTACCTGCACGTGGGTAGAGGGTTATACTACGGGTCATACAAAGCCCCTAGAACATTAACATGAAC . Its measured Disease Control All Rates Average SEPTTR-184 1DP is 71
